# studySystem: HLA-B*15:17
# assayInfo: IEDB peptide-MHC binding, purified MHC/direct/fluorescence; filed as Kd, often an IC50 or EC50 that approximates it; bounds were set here for any values at or beyond the usual limits of such assays
# experimentalSetup: source organism: Escherichia coli O157:H7
parameterMeasured: pKd
Bear in mind: pKd is minus log10 of a mol/L concentration; give just that figure.

Query: Record request: pKd value, item KSWPAAIDW
Result: 8.89

###

# studySystem: HLA-A*02:12
# assayInfo: IEDB peptide-MHC binding, purified MHC/direct/fluorescence; filed as Kd, often an IC50 or EC50 that approximates it; bounds were set here for any values at or beyond the usual limits of such assays
# experimentalSetup: source organism: Convict Creek 107 virus
parameterMeasured: Kd

Query: Record request: Kd value, item TEFFMSRKL
Result: ≥ 20 µM
